Assignment: determine reported PBM binding z-score for the given sequences.
- Tested on: RARb homodimer (NR concentration 270 nM)
- protocol.text: PBM binding z-score (relative to random genomic background probes); higher = stronger binding; sequences stand for … in GC…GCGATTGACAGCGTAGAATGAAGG

Lookup: Given the entry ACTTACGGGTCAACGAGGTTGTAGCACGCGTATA , what PBM binding z-score was observed with RARb homodimer (NR concentration 270 nM)?
Found: 3.03

Lookup: Could you do the same for GATACAGGGTCGAGGCCAGAGTACGCGTATTGAT , please?
Found: 1.31

Lookup: Could you do the same for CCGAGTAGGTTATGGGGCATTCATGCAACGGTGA , please?
Found: 0.909

Lookup: Could you do the same for AGTATGAGGTTAAGATCAGGGAAACAGAATACAT , please?
Found: 1.09

* * *

- Test system: RXRa homodimer (NR concentration 180 nM)
- protocol.text: PBM binding z-score (relative to random genomic background probes); higher = stronger binding; sequences stand for … in GC…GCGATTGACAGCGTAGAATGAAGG
metric: PBM binding z-score
Keep it simple and answer with nothing but the number.

Lookup: Which value of PBM binding z-score has been reported for AGAATGAGGTTATACGTAGATAAGGGAAGAAAGT in the records?
Found: 2.29

Lookup: Could you do the same for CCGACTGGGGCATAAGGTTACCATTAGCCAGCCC , please?
Found: 1.08

Lookup: Could you do the same for ATATCTAGGTTAGCTGGGGTCATTCAGACTAGGC , please?
Found: 5.32

Lookup: Could you do the same for ACAGACAGGGGATGAAGGTAACTCAGGCTATCAT , please?
Found: 0.188

Lookup: Could you do the same for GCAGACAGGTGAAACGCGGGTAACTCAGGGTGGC , please?
Found: 0.631

Lookup: Could you do the same for CGTCAAAGTTCAACTAAGGTAACGTAGAGCACGC , please?
Found: 5.34

Lookup: Could you do the same for CCAGAGAGGTGAGAAGGTAACTCAGCCTCGATTA , please?
Found: 1.05

Lookup: Could you do the same for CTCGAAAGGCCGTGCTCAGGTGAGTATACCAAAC , please?
Found: -0.297

Lookup: Could you do the same for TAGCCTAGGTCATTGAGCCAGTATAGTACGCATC , please?
Found: 2.9

Lookup: Could you do the same for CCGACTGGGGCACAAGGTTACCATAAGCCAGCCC , please?
Found: 0.82

Lookup: Could you do the same for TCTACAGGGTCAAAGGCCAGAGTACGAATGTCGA , please?
Found: 6.72

* * *

Assignment: determine reported PBM binding z-score for the given sequences.
- Test system: PXR homodimer (NR concentration 270 nM)
- protocol.text: PBM binding z-score (relative to random genomic background probes); higher = stronger binding; sequences stand for … in GC…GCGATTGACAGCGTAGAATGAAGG
Keep it simple and answer with nothing but the number.

Lookup: Given the entry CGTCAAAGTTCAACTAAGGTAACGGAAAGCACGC , what PBM binding z-score was observed with PXR homodimer (NR concentration 270 nM)?
Found: 3.68

Lookup: Could you do the same for GCAGACAGGTGACACGCAGGTAACTCAGGGTGGC , please?
Found: -0.476

Lookup: Could you do the same for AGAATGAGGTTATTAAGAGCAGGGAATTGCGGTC , please?
Found: 0.932

Lookup: Could you do the same for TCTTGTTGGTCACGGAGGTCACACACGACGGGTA , please?
Found: 2.43

Lookup: Could you do the same for GTACGAAGGTGAATAGGTCGTTGATGAGTAGGCG , please?
Found: -0.215

Lookup: Could you do the same for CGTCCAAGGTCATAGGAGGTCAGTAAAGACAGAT , please?
Found: 4.18

Lookup: Could you do the same for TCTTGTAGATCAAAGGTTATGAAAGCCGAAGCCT , please?
Found: 0.0149

Lookup: Could you do the same for CAGCCTAGGTAAGGGCCAGTATAGGAGGAACGTT , please?
Found: -0.364

Lookup: Could you do the same for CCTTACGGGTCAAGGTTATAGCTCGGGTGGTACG , please?
Found: 0.16

Lookup: Could you do the same for CGAACCAGGGCATGAGTTGATAGCAAATGCCGAT , please?
Found: -0.0221

Lookup: Could you do the same for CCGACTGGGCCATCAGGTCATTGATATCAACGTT , please?
Found: 0.46

Lookup: Could you do the same for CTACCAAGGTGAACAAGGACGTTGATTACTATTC , please?
Found: 0.295

Lookup: Could you do the same for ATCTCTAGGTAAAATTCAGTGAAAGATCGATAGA , please?
Found: 0.481

Lookup: Could you do the same for ATCTGTAGGTAAGACTCAGTTCAGTGAAGAACGC , please?
Found: 1.28

Lookup: Could you do the same for CGAACGAGGGCATGAGTAGATAGCAAATGCCGAT , please?
Found: -0.112

Lookup: Could you do the same for GCTGCTAGTTCAGGTTGGTCAGCTAACGGGTACG , please?
Found: 0.0964

Lookup: Could you do the same for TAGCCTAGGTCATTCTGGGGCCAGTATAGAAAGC , please?
Found: -0.248

Lookup: Could you do the same for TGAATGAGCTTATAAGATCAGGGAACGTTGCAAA , please?
Found: -0.325

Lookup: Could you do the same for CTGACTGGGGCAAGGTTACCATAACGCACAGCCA , please?
Found: 0.00598

Lookup: Could you do the same for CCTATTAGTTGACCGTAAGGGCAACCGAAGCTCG , please?
Found: 0.939

Lookup: Could you do the same for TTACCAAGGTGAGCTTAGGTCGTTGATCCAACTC , please?
Found: -0.264

Lookup: Could you do the same for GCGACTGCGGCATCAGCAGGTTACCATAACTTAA , please?
Found: -0.376

Lookup: Could you do the same for AGGATGAGGTTACCAAAGATCAGGGAAACGCTTG , please?
Found: 0.27

Lookup: Could you do the same for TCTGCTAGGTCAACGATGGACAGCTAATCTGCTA , please?
Found: -0.751

Lookup: Could you do the same for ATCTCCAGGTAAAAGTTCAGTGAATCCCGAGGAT , please?
Found: 1.88

Lookup: Could you do the same for ATCTCTAGGTAACCAAGTTCATTGAATGCCGAAC , please?
Found: 7.05

Lookup: Could you do the same for CAATCTAGGTCAAGAGGTCAAAGTCCGCTTCCCG , please?
Found: 3.63

Lookup: Could you do the same for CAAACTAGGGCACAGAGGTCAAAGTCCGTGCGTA , please?
Found: 8.42

Lookup: Could you do the same for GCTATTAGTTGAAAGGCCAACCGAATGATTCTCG , please?
Found: -0.082

Lookup: Could you do the same for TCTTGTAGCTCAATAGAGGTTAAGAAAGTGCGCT , please?
Found: -0.163

Lookup: Could you do the same for CCGACTGGGGCAGAAAGGGTACCATACCATCCGG , please?
Found: -0.768

Lookup: Could you do the same for CCAGACAGGTGAAAGGTAACTGAGTCTGGTACGC , please?
Found: -0.224

Lookup: Could you do the same for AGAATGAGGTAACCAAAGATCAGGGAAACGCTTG , please?
Found: -0.0264

Lookup: Could you do the same for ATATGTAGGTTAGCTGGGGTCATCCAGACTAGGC , please?
Found: 1.99

Lookup: Could you do the same for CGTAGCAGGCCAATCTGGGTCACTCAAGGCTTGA , please?
Found: -0.642

Lookup: Could you do the same for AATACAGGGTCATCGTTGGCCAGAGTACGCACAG , please?
Found: 0.72

* * *

- Test system: PPARa:RXRa (NR concentration 270 nM, RXRa partner concentration 90 nM)
- protocol.text: PBM binding z-score (relative to random genomic background probes); higher = stronger binding; sequences stand for … in GC…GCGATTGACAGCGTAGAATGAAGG
Assignment: determine reported PBM binding z-score for the given sequences.
Keep it simple and answer with nothing but the number.

Lookup: Which value of PBM binding z-score has been reported for AGTCAAAGTTCAGGACGAGGCAACGTAAAGCACG in the records?
Found: 3.22

Lookup: Could you do the same for TTACCAAGGTGAAAGTCGTTGATCCCTCTGTAGA , please?
Found: 2.1

Lookup: Could you do the same for GCTGCTAGGTCAACTGATGATCAGCTAAAGCTCG , please?
Found: 3.68

Lookup: Could you do the same for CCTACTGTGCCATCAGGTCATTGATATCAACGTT , please?
Found: 2.82

Lookup: Could you do the same for ATCAAAAGGTCGACGAGGTGAGTATACACCGTTT , please?
Found: 4.82

Lookup: Could you do the same for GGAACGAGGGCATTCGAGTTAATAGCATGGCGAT , please?
Found: 1.58

Lookup: Could you do the same for CCGACTGGGGCAAAGGTTACCATACTCAGTACGA , please?
Found: 5.49

The measurements presented in this section are drawn from the supplement of paper PMC6555819.
